biological target: QR2 (Homo sapiens); experiment: Inhibition of QR2 (IC50, Table 1); assay type: biochemical; conditions: inhibitors of QR2; mean +/− SD
assay endpoint: IC50 (µM)

A = Clc1ccc2c(Nc3ccccn3)ccnc2c1
B = COc1cc(NC(C)c2ccco2)c2ncccc2c1 (stereo not drawn)
Prompt line: Between A and B , whose measured IC50 reads higher? # reply format: chosen label
Response line: B
(B: 0.85 µM, A: 0.55 µM)

====

biological target: QR2 (Homo sapiens, UniProt P16083); assay: Inhibition of QR2 (IC50, Table 1); assay type: biochemical; conditions: lipophilic efficiency, QR2 pIC50 minus clog P
Sequence (P16083 whole entry, species assumed): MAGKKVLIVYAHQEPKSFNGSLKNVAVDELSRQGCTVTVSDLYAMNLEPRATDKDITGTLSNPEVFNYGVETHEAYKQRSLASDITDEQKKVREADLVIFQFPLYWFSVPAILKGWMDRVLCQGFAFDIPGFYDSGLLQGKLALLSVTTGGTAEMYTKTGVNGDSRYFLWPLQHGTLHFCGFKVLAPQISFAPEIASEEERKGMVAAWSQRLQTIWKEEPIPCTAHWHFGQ
assay endpoint: LiPE (pIC50-clogP)

Clc1ccc2c(Nc3ccccn3)ccnc2c1 = 2.71
COc1cc(NCc2ccccn2)c2ncccc2c1 = 4.30
CNc1ccnc2cc(Cl)ccc12 = 4.67

1 = COc1cc(NC(C)c2ccco2)c2ncccc2c1 (centres unmarked)
2 = Oc1ccc(CCNc2ccnc3cc(Cl)ccc23)cc1
Prompt line: Min LiPE (pIC50-clogP)? 1 | 2 # reply format: chosen label
Response line: 2
(2: 1.65, 1: 3.42)
